# method_summary: bacterial suspension in saliva ion buffer (OD620 1.2)
# condition_parameters: Veilonella atypica HOT-524 (strain WSAN-25), up to 24 h
The star is where a group is joined. pNA = O=[N+]([O-])c1ccc(N*)cc1; Cbz = O=C(OCc1ccccc1)*
parameter_measured: not cleaved

Cbz-Gln-Gln-Pro-pNA	− after 24 h
Cbz-Tyr-Pro-Gln-pNA	− after 24 h
Cbz-Pro-Phe-Pro-pNA	− after 24 h
Cbz-Pro-Pro-Phe-pNA	− after 24 h

* * *

# method_summary: bacterial suspension in saliva ion buffer (OD620 1.2)
# condition_parameters: Staphylococcus epidermidis HOT-601 (strain WSA-10), up to 24 h
The star is where a group is joined. pNA = O=[N+]([O-])c1ccc(N*)cc1; Cbz = O=C(OCc1ccccc1)*
parameter_measured: not cleaved

Cbz-Pro-Phe-Pro-pNA	− after 24 h
Cbz-Gln-Gln-Pro-pNA	− after 24 h
Cbz-Pro-Pro-Phe-pNA	− after 24 h
